system: SK-MEL-2 melanoma; experiment: NCI-60 one-dose screen, 48 h; settings: 10 µM unless noted
About 83,000 compounds went through this panel and 20% of them were active in at least one assay; those are over-represented in the sample as a whole. Calls of active or inactive are those of the source. How the source made its calls: active means growth percent below 10; inactive means the rest.
Please reply with one of these outcomes: active, inactive

Short answer needed: outcome of this test for COc1ccc(C2c3sc4c(F)cccc4c3Oc3nc[nH]c(=O)c32)cc1 (centres undefined) ?
inactive

Short answer needed: outcome of this test for `COc1cnc2c(c1)C(=O)c1c-2n(CCCNCCO)c(=O)c2ccncc12` ?
active

Short answer needed: outcome of this test for `CC(C)(C)[Si](C)(C)O[C@H]1C(=O)C=CN2CC=C[C@@H]12` ?
inactive

Short answer needed: outcome of this test for `CC1=Nc2cnc(Nc3ccc(OCCN4CCCC4)cc3)nc2Nc2ccccc21` ?
inactive

Short answer needed: outcome of this test for `O=C(CCCCCCN1CC(=O)N2[C@H](c3cc(Br)cs3)c3[nH]c4ccccc4c3C[C@H]2C1=O)NO` ?
inactive

Short answer needed: outcome of this test for `COC(=O)[C@H]1CCCN1C[C@@H](O)CN1C(=O)/C(=C\c2cc(OC)c(OC)c(OC)c2)c2ccccc21` ?
inactive

Short answer needed: outcome of this test for `COc1ccc(N2CCC(=O)NC2=S)cc1` ?
inactive

Short answer needed: outcome of this test for `C=C(C)[C@@H]1CC[C@]2(C(=O)OC)CC[C@]3(C)[C@H](CC[C@@H]4[C@@]5(C)C/C(=C/NC(N)=S)C(=O)C(C)(C)[C@@H]5CC[C@]43C)[C@@H]12` ?
inactive

Short answer needed: outcome of this test for CC(C)N1CN2C(=S)NC3C2N(C1)C(=S)N3C (centres undefined) ?
inactive
